Catalogue of variants with associated abundance fitness
B1: Membrane-associated guanylate kinase, WW and PDZ domain-containing protein 2, residues 296 to 340; numbered along this chain, Q86UL8 (parent)
chain: EDNEEPDPLPDNWEMAYTEKGEVYFIDHNTKTTSWLDPRLAKKAK

- Variants of: B1
- assay.info: abundance fitness (aPCA) (normalised: wild type 0, dead -1); higher = more abundant; growth selection in yeast, the domain comes from the species named
- setup.conditions: Homo sapiens
Number only, please.

Consider the reported abundance fitness for these variants:
   mutation_label  observed_result
0            K43R            0.023
1            D37I           -0.832
2            A41F           -0.113
3            K43N           -0.324
4            T33C            0.021
5            E22C           -0.377
6            D11S            0.421
7            T32R           -0.269

Query: Entry under review: P6W . Reported abundance fitness?
Response: 0.043

Query: What does the data say about its abundance fitness? Entry: T18R
Response: -0.91

Query: Endpoint output: abundance fitness of W35I . Value?
Response: -0.492
